Experiment: Volume of distribution at steady state in Sprague-Dawley rat at 1 mg/kg, iv measured for 24 hrs by LC-MS/MS analysis
Assay type: ADME, organism-based
Conditions: in vivo, read-out: Vdss
Quantity kind: Vd (L/kg)
Quick reminder: number only, in L/kg, skip the unit.

For the molecule CN1CCC(=C(F)c2cccc(NC(=O)c3ccc(Cl)cc3)n2)CC1 , report Vd.
20.3

For the molecule CN1CCC(=C(F)c2cccc(NC(=O)c3ccc(Cl)cc3F)n2)CC1 , report Vd.
20.1

For the molecule CN1CCC(C(=O)c2cccc(NC(=O)c3c(F)cc(F)cc3F)n2)CC1 , report Vd.
32.2

For the molecule CN1CCC(=C(F)c2cccc(NC(=O)c3ccc(F)cc3)n2)CC1 , report Vd.
17.3

For the molecule CN1CCC(=C(F)c2cccc(NC(=O)c3ccc(F)cc3F)n2)CC1 , report Vd.
17.7

For the molecule CN1CCC(=C(F)c2cccc(NC(=O)c3c(F)cc(F)cc3F)n2)CC1 , report Vd.
12.8

For the molecule CN1CCC(=C(F)c2cccc(NC(=O)c3ccc(F)cn3)n2)CC1 , report Vd.
11

---

Experiment: AUC(0 to t) in Sprague-Dawley rat at 1 mg/kg, iv measured for 24 hrs by LC-MS/MS analysis
Format: ADME, organism-based
Set-up: time 24 hrs, dose 1 mg/kg
Settings: in vivo
Quantity kind: AUC(0-t) at 24 h (ng·h/mL)
Quick reminder: number only, in ng·h/mL, skip the unit.

# annotated cases, reported AUC(0-t) at 24 h shown
Molecule	Reported
CN1CCC(=C(F)c2cccc(NC(=O)c3ccc(Cl)cc3)n2)CC1	89.4
CN1CCC(=C(F)c2cccc(NC(=O)c3ccc(Cl)cc3F)n2)CC1	90.5
CN1CCC(=C(F)c2cccc(NC(=O)c3ccc(F)cc3)n2)CC1	104

For the molecule CN1CCC(=C(F)c2cccc(NC(=O)c3c(F)cc(F)cc3F)n2)CC1 , report AUC(0-t) at 24 h.
128

For the molecule CN1CCC(C(=O)c2cccc(NC(=O)c3c(F)cc(F)cc3F)n2)CC1 [LASMIDITAN] , report AUC(0-t) at 24 h.
105

For the molecule CN1CCC(=C(F)c2cccc(NC(=O)c3ccc(F)cc3F)n2)CC1 , report AUC(0-t) at 24 h.
70.4

For the molecule CN1CCC(=C(F)c2cccc(NC(=O)c3ccc(F)cn3)n2)CC1 , report AUC(0-t) at 24 h.
103

---

Test: Toxicity in ig dosed monkey administered for 28 days
Format: organism-based, Macaca mulatta
Details: rhesus monkey, in vivo, po; time 28 day
Quantity kind: NOAEL at 672 h (mg/kg/day)
Quick reminder: number only, in mg/kg/day, skip the unit.

For the molecule CN1CCC(=C(F)c2cccc(NC(=O)c3c(F)cc(F)cc3F)n2)CC1 , report NOAEL at 672 h.
5

---

Test: AUC (0 to 24hrs) in Sprague-Dawley rat at 50 mg/kg, ig by LC-MS/MS analysis
Format: ADME, organism-based
Parameters: time < 24 hr, route intragastric, dose 50 mg/kg
Conditions: in vivo, po
Quantity kind: AUC(0-t) at 24 h (ng·h/mL)
Quick reminder: number only, in ng·h/mL, skip the unit.

For the compound CN1CCC(=C(F)c2cccc(NC(=O)c3c(F)cc(F)cc3F)n2)CC1 , report AUC(0-t) at 24 h.
5290
